Entries annotated with measured inhibition at 20 µM
target: human JAK3 (Homo sapiens, UniProt P52333); construct: The kinase domain of human JAK3 was amplified from U937mRNA; His tag (pFastBac HTb vector; nickel chelate purification) (N); made in house; host or cells: baculovirus; Sf9 for virus, High Five insect cells for production; experiment: JAK kinase assay (ELISA or Alphascreen), Jak3; assay type: biochemical; conditions: standard conditions, read-out: Jak3 inhibition of enzyme activity
Sequence (P52333 822-1111 limits assumed): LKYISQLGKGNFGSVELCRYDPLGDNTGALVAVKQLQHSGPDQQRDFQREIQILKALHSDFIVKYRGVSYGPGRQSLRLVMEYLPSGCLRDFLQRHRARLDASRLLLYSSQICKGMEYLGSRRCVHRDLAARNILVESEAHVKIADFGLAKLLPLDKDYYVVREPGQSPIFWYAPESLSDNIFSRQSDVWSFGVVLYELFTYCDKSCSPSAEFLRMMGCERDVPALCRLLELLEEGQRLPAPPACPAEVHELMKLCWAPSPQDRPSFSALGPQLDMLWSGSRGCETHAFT

| molecule | system-name | inhibition at 20 µM |
| --- | --- | --- |
| CO/C=C\N(C)CCCCNC(=O)c1ccc2ncn(-c3cncc(N[C@@H](C)c4ccccc4)n3)c2c1 | human JAK3 (Homo sapiens, UniProt P52333) | ≥ 50% |
| CC(Nc1cncc(-n2cnc3ccc(C#N)cc32)n1)c1cccc(F)c1 (centres unmarked) | human JAK3 (Homo sapiens, UniProt P52333) | ≥ 50% |
| CC(Nc1cncc(N2CNc3cc(CN4CCN(C)CC4)ccc32)n1)c1ccc(F)cc1 (centres unmarked) | human JAK3 (Homo sapiens, UniProt P52333) | < 50% |
| CC(Nc1cncc(-n2cnc3ccccc32)n1)c1cccc(Cl)c1 (centres unmarked) | human JAK3 (Homo sapiens, UniProt P52333) | < 50% |

Okay, now this molecule:
Briefly, inhibition at 20 µM measured for CNCCN(C)Cc1ccc2ncn(-c3cncc(NC(C)c4ccc(F)cc4)n3)c2c1 (centres unmarked) : < 50%
